Values from patent US10208033B2

Listed here: items and their measured Relative inhibition rate (%) In vivo inactivation.
test system: tobacco mosaic virus (TMV); assay: Anti-TMV in vivo inactivation; set-up: species or system tobacco mosaic virus (host Nicotiana tabacum L.cv.Xanthi NN); conditions: treatment dose 100 μg/mL
PROPERTY: Relative inhibition rate (%) In vivo inactivation

smiles_text=Cc1nnsc1C(=O)NNC(=O)[C@@H]1Cc2c([nH]c3ccccc23)[C@H](C)N1 measured_on="tobacco mosaic virus (TMV)" numeric_result=9.8
smiles_text=C[C@@H]1N[C@H](C(=O)NN=Cc2cccnc2)Cc2c1[nH]c1ccccc21 measured_on="tobacco mosaic virus (TMV)" numeric_result=11.2
smiles_text=C[C@@H]1N[C@H](C(=O)NN=C2CCCCC2)Cc2c1[nH]c1ccccc21 measured_on="tobacco mosaic virus (TMV)" numeric_result=12.8
smiles_text=O=C(O)/C=C/c1cc2c([nH]c3ccccc32)c(-c2cccs2)n1 measured_on="tobacco mosaic virus (TMV)" numeric_result=13.5
smiles_text=CCCC=NNC(=O)[C@@H]1Cc2c([nH]c3ccccc23)[C@H](C)N1 measured_on="tobacco mosaic virus (TMV)" numeric_result=13.4
